Molecular target: feline FcRn complex (FcRn-α subunit and β-microglobulin), biotin labeled (feline)
Assay: SPR, pH 6
READOUT LABEL: Kd (nM)

| BINDER | TEST RESULT |
| --- | --- |
| feline IgG1a S428F (antibody, part only; not given: Variable domains, not shown: another chain or arm of the molecule) constant: ASTTAPSVFPLAPSCGTTSGATVALACLVLGYFPEPVTVSWNSGALTSGVHTFPAVLQASGLYSLSSMVTVPSSRWLSDTFTCNVAHPPSNTKVDKTVRKTDHPPGPKPCDCPKCPPPEMLGGPSIFIFPPKPKDTLSISRTPEVTCLVVDLGPDDSDVQITWFVDNTQVYTAKTSPREEQFNSTYRVVSVLPILHQDWLKGKEFKCKVNSKSLPSPIERTISKAKGQPHEPQVYVLPPAQEELSRNKVSVTCLIKSFHPPDIAVEWEITGQPEPENNYRTTPPQLDSDGTYFVYSKLSVDRSHWQRGNTYTCSVFHEALHSHHTQKSLTQSPGK | 83.9 |
| feline IgG1a L314K/S434Y (antibody, part only; not given: Variable domains, not shown: another chain or arm of the molecule) constant: ASTTAPSVFPLAPSCGTTSGATVALACLVLGYFPEPVTVSWNSGALTSGVHTFPAVLQASGLYSLSSMVTVPSSRWLSDTFTCNVAHPPSNTKVDKTVRKTDHPPGPKPCDCPKCPPPEMLGGPSIFIFPPKPKDTLSISRTPEVTCLVVDLGPDDSDVQITWFVDNTQVYTAKTSPREEQFNSTYRVVSVLPILHQDWKKGKEFKCKVNSKSLPSPIERTISKAKGQPHEPQVYVLPPAQEELSRNKVSVTCLIKSFHPPDIAVEWEITGQPEPENNYRTTPPQLDSDGTYFVYSKLSVDRSHWQRGNTYTCSVSHEALHYHHTQKSLTQSPGK | 244 |
